This collection of values is drawn from the supplement of paper PMC9938120.

test system: FMOC14 (patient-derived high-grade serous ovarian cancer cells); test: drug sensitivity score (DSS3, normalised partial AUC of % inhibition dose-response) (DSS (score)); higher = more sensitive (stronger inhibition of viability); extreme values may be limits of the assay; conditions: 72 h; library: FO5A; assay format: 2D, 384-well, CellTiter-Glo
Reported drug sensitivity score values follow for various molecules
Kindly provide the number alone.

Molecule: FC(F)c1nc2ccccc2n1-c1nc(N2CCOCC2)nc(N2CCOCC2)n1
Readout label: drug sensitivity score
Reported value: 9.8

[in] Any idea what drug sensitivity score was measured for Nc1ncnc2c1nc(Cl)n2[C@@H]1O[C@H](CO)[C@@H](O)[C@H]1O ?
[out] 3.3

[in] Any idea what drug sensitivity score was measured for O=c1sn(-c2cccc3ccccc23)c(=O)n1Cc1ccccc1 ?
[out] 0

[in] Any idea what drug sensitivity score was measured for CC1(C)CNc2cc(NC(=O)c3cccnc3NCc3ccncc3)ccc21 ?
[out] 0

###

Reported drug sensitivity score values follow for various compounds
system: FMOC25_2 (patient-derived low-grade serous ovarian cancer cells); test: drug sensitivity score (DSS3, normalised partial AUC of % inhibition dose-response) (DSS (score)); higher = more sensitive (stronger inhibition of viability); extreme values may be limits of the assay; conditions: 72 h; library: FO5A; assay format: 2D, 384-well, CellTiter-Glo
Kindly provide the number alone.

As a guide, the following entries are already answered.
Compound: COc1cc(Nc2c(C#N)cnc3cc(OCCCN4CCN(C)CC4)c(OC)cc23)c(Cl)cc1Cl
Reported value: 13.2

Compound: C=C(c1ccc(C(=O)O)cc1)c1cc2c(cc1C)C(C)(C)CCC2(C)C
Reported value: 0

[in] Any idea what drug sensitivity score was measured for CC(O)c1cc(C(=O)N[C@@H](C)Cn2ccc(-c3ccc(C#N)c(Cl)c3)n2)n[nH]1 (stereo partly drawn) ?
[out] 0.5

###

test system: FMOC24 (patient-derived high-grade serous ovarian cancer cells); assay: drug sensitivity score (DSS3, normalised partial AUC of % inhibition dose-response) (DSS (score)); higher = more sensitive (stronger inhibition of viability); extreme values may be limits of the assay; settings: 72 h; library: FO5A; assay format: 2D, 384-well, CellTiter-Glo
Kind request: treat 6 as inclusive, so drug sensitivity score at 6 or higher is label 1, anything lower is label 0.

Smiles record: N#CC[C@H](C1CCCC1)n1cc(-c2ncnc3[nH]ccc23)cn1
Group label: label 0

[in] Is reported drug sensitivity score greater than or equal to 6 here: Cn1cc(-c2ccc(F)c(C(F)(F)F)c2)nc1C1CCN(c2ncnc3[nH]ncc23)CC1
[out] label 0

[in] Is reported drug sensitivity score greater than or equal to 6 here: CCCC(CCC)C(=O)O
[out] label 0

[in] Is reported drug sensitivity score greater than or equal to 6 here: CC[C@H](CC#N)OC(=O)N[C@@H](C)c1cccc(NC(=O)Nc2ccc(-c3cnco3)c(OC)c2)c1
[out] label 1

[in] Is reported drug sensitivity score greater than or equal to 6 here: Cc1noc2c1-c1ccccc1C(c1ccc(Cl)cc1)=N[C@H]2CC(N)=O
[out] label 1

[in] Is reported drug sensitivity score greater than or equal to 6 here: Cc1c(-c2ccc(N3CCc4cccc(C(=O)Nc5nc6ccccc6s5)c4C3)nc2C(=O)O)cnn1CC12CC3CC(CC(C3)C1)C2
[out] label 1

[in] Is reported drug sensitivity score greater than or equal to 6 here: CNC(=O)c1nn(C)c2c1C(C)(C)Cc1cnc(Nc3ccc(N4CCN(C)CC4)cc3)nc1-2
[out] label 1
